Item-by-item account of URINE P/C ratio (total protein to creatinine ratio)
# measurement_parameters: rat, in vivo, sc, 50 mg/kg
readout_label: URINE P/C ratio (total protein to creatinine ratio)

>  <substance>
1198872 (TGTATGTCAGAAGAGT; chemically modified gapmer, further chemistry not given here) [compound 1198872]

>  <result>
8

$$$$
>  <substance>
1198728 (TATTAGAGTATGTGGC; modified gapmer, further chemistry not given here) [compound 1198728]

>  <result>
7

$$$$
>  <substance>
1197270 (TTAAAGTGTATGTCAG; cEt gapmer with 2'-OMe nucleoside, phosphorothioate, further chemistry not given here) [compound 1197270]

>  <result>
14

$$$$
>  <substance>
1198831 (CACTTTTACATTAGGA; chemically modified gapmer, further chemistry not given here) [compound 1198831]

>  <result>
17

$$$$
>  <substance>
1198623 (CTAAGTAAGGTTTCCC; modified gapmer, further chemistry not given here) [compound 1198623]

>  <result>
5

$$$$
>  <substance>
1198605 (GTAATATTGCAATCTG; modified gapmer, further chemistry not given here) [compound 1198605]

>  <result>
28

$$$$

---

# YAP1 (% UTC) listing for each entry below
# Test system: Yap1 mRNA
# test_name: Antisense inhibition of human Yap1 in A-431 cells by cEt gapmers, single dose (Example 2, RTS4814)
# Type: cell-based
# measurement_parameters: Table 18; A-431 cells, 5,000 cells per well, free uptake, 2,000 nM modified oligonucleotide, approx. 48 hours; RTS4814; normalized to RIBOGREEN; Yap1 mRNA as percent of untreated control
Strand notation (5' to 3'): a small letter for the sugar, then the base; units joined by * are phosphorothioate-linked, units joined directly phosphodiester-linked; [ ] holds rarer units or linkages, { } end groups; capitals alone tell only the bases. k = constrained ethyl (cEt); [5mC] = 5-methylcytosine; d = 2'-deoxy (DNA)

>  <substance>
1074820 (kA*kA*kG*dT*dG*dT*dT*dA*dA*dG*d[5mC]*dA*d[5mC]*kT*kG*kA; antisense) [Compound 1074820]

>  <target_of_assay>
Yap1 mRNA

>  <YAP1 (% UTC)>
85

$$$$
>  <substance>
1074692 (antisense k[5mC]*k[5mC]*k[5mC]*d[5mC]*d[5mC]*d[5mC]*d[5mC]*dA*dA*dA*d[5mC]*dT*dT*kT*k[5mC]*k[5mC]) [Compound 1074692]

>  <target_of_assay>
Yap1 mRNA

>  <YAP1 (% UTC)>
101

$$$$
>  <substance>
1075556 (kT*kG*kG*d[5mC]*dA*dA*dA*dA*dG*dA*dG*dT*dG*kG*kT*kG; antisense) [Compound 1075556]

>  <target_of_assay>
Yap1 mRNA

>  <YAP1 (% UTC)>
68

$$$$
>  <substance>
1076420 (k[5mC]*k[5mC]*kA*dT*dA*dT*dA*dA*dT*dA*dA*d[5mC]*d[5mC]*k[5mC]*kA*kT; antisense) [Compound 1076420]

>  <target_of_assay>
Yap1 mRNA

>  <YAP1 (% UTC)>
26

$$$$
>  <substance>
1075140 (antisense k[5mC]*kT*kT*dT*dA*dG*dG*dT*dT*dA*dA*dG*d[5mC]*kA*kA*kT) [Compound 1075140]

>  <target_of_assay>
Yap1 mRNA

>  <YAP1 (% UTC)>
86

$$$$
>  <substance>
1075492 (antisense kG*k[5mC]*kT*dA*dA*dA*dA*dT*dG*dA*dT*dA*d[5mC]*kT*kT*k[5mC]) [Compound 1075492]

>  <target_of_assay>
Yap1 mRNA

>  <YAP1 (% UTC)>
29

$$$$
>  <substance>
1076036 (k[5mC]*kG*kT*dA*dA*dT*dT*dA*dG*dA*dA*dA*d[5mC]*kT*kT*kG; antisense) [Compound 1076036]

>  <target_of_assay>
Yap1 mRNA

>  <YAP1 (% UTC)>
19

$$$$
>  <substance>
1074788 (kT*k[5mC]*kA*dA*d[5mC]*d[5mC]*dA*dT*dA*dA*dG*dT*dA*kG*kA*kT; antisense) [Compound 1074788]

>  <target_of_assay>
Yap1 mRNA

>  <YAP1 (% UTC)>
25

$$$$
>  <substance>
1075716 (kG*k[5mC]*k[5mC]*dG*dA*dA*dA*dT*dA*d[5mC]*dT*d[5mC]*dT*k[5mC]*kA*kT; antisense) [Compound 1075716]

>  <target_of_assay>
Yap1 mRNA

>  <YAP1 (% UTC)>
19

$$$$
>  <substance>
1074756 (kG*k[5mC]*kA*d[5mC]*dT*dT*dT*dT*dA*d[5mC]*dA*dT*dT*kA*kG*kG) [Compound 1074756]

>  <target_of_assay>
Yap1 mRNA

>  <YAP1 (% UTC)>
3

$$$$
>  <substance>
1075044 (antisense kA*kA*kT*dT*dA*dG*dA*d[5mC]*dT*d[5mC]*d[5mC]*d[5mC]*d[5mC]*k[5mC]*kA*kA) [Compound 1075044]

>  <target_of_assay>
Yap1 mRNA

>  <YAP1 (% UTC)>
58

$$$$
>  <substance>
1076260 (k[5mC]*kT*kT*dA*dA*dT*dT*dT*dA*dA*d[5mC]*dT*d[5mC]*k[5mC]*kT*kG; antisense) [Compound 1076260]

>  <target_of_assay>
Yap1 mRNA

>  <YAP1 (% UTC)>
3

$$$$
